# system-name: recombinant homotrimeric HA, A/Wisconsin/67/05 H3N2 (Influenza A virus A/Wisconsin/67/05 (H3N2))
# test-name: trimeric HA microarray, transfection set 4
# run-parameters: remark: other sources report otherwise
measure-name: Trimeric HA Binding RLU (RLU)
# value in RLU; strip the unit string

INPUT: Would you kindly share the measured Trimeric HA Binding RLU for TCN-535 (5246_P19) (antibody, V domains shown) VH: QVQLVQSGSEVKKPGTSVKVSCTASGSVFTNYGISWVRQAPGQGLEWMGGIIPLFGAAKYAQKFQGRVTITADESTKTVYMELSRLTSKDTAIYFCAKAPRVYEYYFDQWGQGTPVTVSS VL: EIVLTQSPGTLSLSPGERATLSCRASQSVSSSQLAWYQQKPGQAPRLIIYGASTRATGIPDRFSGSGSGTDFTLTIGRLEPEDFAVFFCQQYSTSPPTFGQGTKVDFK ?
OUTPUT: 4450
